This collection of values is drawn from PubChem BioAssay AID1159554.

# test protocol: P. falciparum Dd2 growth inhibitors, primary screen, SYBR Green fluorescence, single dose replicates (AID 1159554)
# measurement parameters: 72 h, at 10 µM
Screen size: about 94,000 compounds; about 2,100 (2.2%) were called active. Cut-off read from the data, not from the text of the source: active = activity change below about -80%; inconclusive = no clear call, values can overlap the other calls; inactive = above that. For the sample, actives were picked, then their nearest neighbours and some compounds at random.
Labels: 1 = active, 0 = inactive

CCCC#Cc1ccc([C@H]2[C@H]3CN(C(=O)Nc4cccc(F)c4)CC(=O)N3[C@H]2CO)cc1; 0
C[C@H](CO)N1C[C@H](C)[C@H](CN(C)CC2CCCCC2)Oc2ccc(NC(=O)CCCCCC(=O)Nc3ccccc3N)cc2CC1=O; 0
C[C@@H](NC(=O)C[C@H]1CC[C@H]2[C@@H](COC[C@@H](O)CN2C(=O)Nc2ccccc2)O1)c1ccccc1; 0
COc1ccc(NC(=O)Nc2ccc3c(c2)C(=O)N([C@@H](C)CO)C[C@H](C)[C@H](CN(C)S(=O)(=O)c2ccccc2)OCCCC[C@@H](C)O3)cc1; 1
CC(C)NC(=O)Nc1cccc2c1O[C@H](CN(C)CC1CCCCC1)[C@H](C)CN([C@H](C)CO)C2=O; 0
Cc1ccc(S(=O)(=O)N2C[C@@H](O)COC[C@@H]3O[C@H](CC(=O)NCCCN(C)C)CC[C@H]32)cc1; 0
CC(C)NC(=O)Nc1ccc2c(c1)C(=O)N([C@H](C)CO)C[C@H](C)[C@@H](CN(C)CC1CCCCC1)OCCCC[C@@H](C)O2; 0
C[C@@H]1CN([C@@H](C)CO)C(=O)c2cccc(NC(=O)CCCCCC(=O)Nc3ccccc3N)c2O[C@H]1CN(C)C(=O)Nc1ccccc1; 0
C[C@H](CO)N1C[C@H](C)[C@@H](CN(C)C(=O)Nc2ccccc2)Oc2c(NC(=O)CCCCCC(=O)Nc3ccccc3N)cccc2C1=O; 0
COc1ccc(NC(=O)Nc2ccc3c(c2)C(=O)N([C@H](C)CO)C[C@H](C)[C@@H](CN(C)C(=O)Nc2ccc(OC)cc2)OCCCC[C@H](C)O3)cc1; 0
C[C@@H]1CN([C@H](C)CO)C(=O)c2cc(NC(=O)Nc3ccc(F)cc3)ccc2O[C@@H](C)CCCCO[C@@H]1CN(C)CC1CCCCC1; 1
Cc1noc(C)c1S(=O)(=O)Nc1ccc2c(c1)C(=O)N([C@@H](C)CO)C[C@@H](C)[C@H](CN(C)C(=O)Nc1cccc3ccccc13)O2; 0
CCCNC(=O)N1C[C@H](C)[C@@H](OC)CN(C)C(=O)c2ccc(NC(=O)CC)cc2OC[C@@H]1C; 0
COc1ccc(S(=O)(=O)N(C)C[C@@H]2OCCCC[C@H](C)Oc3ccc(NC(=O)Nc4ccccc4)cc3C(=O)N([C@@H](C)CO)C[C@H]2C)cc1; 0
